Each recorded value in this set is attributed to paper PMC11850817.

# Tested on: NIH3T3
# ASSAY_OVERVIEW: MTT assay, NIH3T3 non-cancer cell line
# Type: cell-based
# MEASUREMENT_CONTEXT: Mus musculus, NIH3T3, 72 h, read-out: IC50 NIH3T3
ASSAY_METRIC: IC50 (µM)
Answers are plain numbers, in µM.

O=C1C=C(Nc2ccc(OCc3cn(Cc4ccc(Cl)cc4)nn3)cc2)C(=O)c2ccccc21	14.4

Quick request: IC50 for each listed item, please.
1. CC(C)c1ccc(Cn2cc(COc3ccc(NC4=CC(=O)c5ccccc5C4=O)cc3)nn2)cc1
2. O=C1C=C(Nc2ccc(OCc3cn(Cc4ccc(Br)cc4)nn3)cc2)C(=O)c2ccccc21
3. O=C1C=C(Nc2ccc(OCc3cn(Cc4ccccc4)nn3)cc2)C(=O)c2ccccc21
4. CC(C)(C)c1ccc(Cn2cc(COc3ccc(NC4=CC(=O)c5ccccc5C4=O)cc3)nn2)cc1
5. COc1cccc2c1C(=O)c1c(O)c3c(c(O)c1C2=O)C[C@@](O)(C(=O)CO)C[C@@H]3O[C@H]1C[C@H](N)[C@H](O)[C@H](C)O1 [Doxorubicin, reference compound]
6. Cc1ccc(Cn2cc(COc3ccc(NC4=CC(=O)c5ccccc5C4=O)cc3)nn2)cc1

[reply]
1: 24.5; 2: 50.9; 3: 85.5; 4: 46.7; 5: 0.013; 6: 25.5
